Catalogue of IC50 readings, one per entry.
Molecular target: α2,6(N)-sialyltransferases ST6GALI (Homo sapiens, UniProt P15907)
Construct: purchased RnDSystems.com (R&D Systems)
Sequence (P15907 1-406): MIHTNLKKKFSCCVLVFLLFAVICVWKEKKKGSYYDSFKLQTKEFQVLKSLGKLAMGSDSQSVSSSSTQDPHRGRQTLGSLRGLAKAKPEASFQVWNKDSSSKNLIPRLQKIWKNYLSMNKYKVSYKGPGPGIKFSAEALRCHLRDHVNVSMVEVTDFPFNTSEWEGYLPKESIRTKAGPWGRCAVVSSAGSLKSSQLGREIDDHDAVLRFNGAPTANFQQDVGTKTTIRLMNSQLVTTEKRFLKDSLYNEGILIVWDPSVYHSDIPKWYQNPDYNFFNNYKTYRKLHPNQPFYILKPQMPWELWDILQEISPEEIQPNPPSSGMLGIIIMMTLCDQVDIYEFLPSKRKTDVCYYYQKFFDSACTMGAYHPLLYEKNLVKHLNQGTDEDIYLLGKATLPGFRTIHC
Assay: Sialyltransferase inhibition assay, ST6GALI (reverse-phase HPLC)
Assay type: biochemical
Settings: IC50 (μM) ST6GALI, α2,6-N-link
Quote the value and follow it with the unit of measurement.

Reference set (2 entries):
INSERT INTO results (molecule, observed) VALUES
  ('COc1ccc2c(CC(=O)N[C@@H](CC(=O)O)C(=O)O[C@@H]3CC[C@@]4(C)[C@H](CC[C@@H]5[C@@H]4CC[C@]4(C)C([C@H](C)CCC(=O)OCCOCCOCCN=[N+]=[N-])CC[C@@H]54)C3)cc(=O)oc2c1 (stereo partly drawn) [Compound 13]', '4.61 µM'),
  ('COc1ccc2c(CC(=O)N[C@@H](CC(=O)O)C(=O)O[C@@H]3CC[C@@]4(C)[C@H](CC[C@@H]5[C@@H]4CC[C@]4(C)C([C@H](C)CCC(=O)OCCOCCN=[N+]=[N-])CC[C@@H]54)C3)cc(=O)oc2c1 (stereo partly drawn) [Compound 12]', '5.14 µM');

Could you now consider this next molecule?
If you can, please state the reported IC50 value of C[C@H](CCC(=O)OCCOCCOCCOCCOCCN=[N+]=[N-])C1CC[C@H]2[C@@H]3CC[C@@H]4C[C@H](OC(=O)[C@H](CC(=O)O)NC(=O)c5ccc([N+](=O)[O-])cc5)CC[C@]4(C)[C@H]3CC[C@]12C (stereo partly drawn) [Compound 10] .
7.45 µM
